Origin of values: patent US20160237059A1

molecular target: human CCR2 (Homo sapiens, UniProt P41597); assay: Functional Ca2+ release test (B-1); details: Chem-1 cell line transfected with human CCR2; 50% inhibition of the MCP-1 effect, MCP-1 at EC50 (about 5 nM); in some cases means of several determinations
Sequence (P41597 1-360 isoform P41597-2): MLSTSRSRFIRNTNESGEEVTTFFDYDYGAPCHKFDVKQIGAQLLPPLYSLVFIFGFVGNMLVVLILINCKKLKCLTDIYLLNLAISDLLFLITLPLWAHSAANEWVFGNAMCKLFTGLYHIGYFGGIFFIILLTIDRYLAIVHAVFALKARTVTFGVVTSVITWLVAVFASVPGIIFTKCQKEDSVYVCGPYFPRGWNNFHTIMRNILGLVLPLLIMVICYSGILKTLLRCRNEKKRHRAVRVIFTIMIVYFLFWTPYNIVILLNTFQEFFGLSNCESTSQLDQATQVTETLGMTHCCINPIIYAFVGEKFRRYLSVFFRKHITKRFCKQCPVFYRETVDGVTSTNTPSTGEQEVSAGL

test.smiles | IC50 [nM]
Nc1cccc(-c2nc(C(F)(F)F)c(Oc3ccc(Cl)c(C(F)(F)F)c3)c(=O)[nH]2)n1 | 2.2
O=c1[nH]c(-c2cccnn2)nc(C(F)(F)F)c1Oc1ccc(Cl)c(C(F)(F)F)c1 | 0.4
COc1nc(N)n(-c2nc(C(F)(F)F)c(Oc3ccc(Cl)c(Cl)c3)c(=O)[nH]2)n1 | 15
CC(C)(C)c1nncn1-c1nc(C(F)(F)F)c(Oc2ccc(Cl)c(Cl)c2)c(=O)[nH]1 | 76
Cc1cc(Oc2c(C(F)(F)F)nc(-c3cc[nH]n3)[nH]c2=O)ccc1Cl | 0.1
CCOC(=O)c1nc(-c2nc(C(F)(F)F)c(Oc3ccc(Cl)c(Cl)c3)c(=O)[nH]2)no1 | 13
O=c1[nH]c(-c2ncon2)nc(C(F)(F)F)c1Oc1ccc(Cl)c(Cl)c1 | 4.2
COc1nccnc1-c1nc(C(F)(F)F)c(Oc2ccc(Cl)c(Cl)c2)c(=O)[nH]1 | 0.3
O=c1[nH]c(-c2ccccn2)nc(C(F)(F)F)c1Oc1ccc(F)c(Cl)c1 | 4.5
